Test: chemical genetic growth profiling, strain panel (AID 1159580);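 also: tested at 20 µM; growth read once vehicle control cultures reached saturation at 30 °C; 1 = growth at the plate median or of vehicle wells; lower values mean less growth of the strain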
Conditions: S. cerevisiae deletion strains, growth OD, locus YEL061C, strain CIN8 (second series)
Hit rate of the full screen: of about 5,500 compounds, about 2,000 (36%) were called active. Not shown: some 18% with an inconclusive outcome. Rule as the data show it: active = normalized growth mostly below about 0.91 (no sharp cut-off); inconclusive = no clear call, values can overlap the other calls; inactive = mostly above about 0.92. The list shows a part of the results.
Classes used: yes for active, no for inactive

[
  {
    "CPD_SMILES": "O=c1c2ccccc2[se]n1-c1ccccc1",
    "ASSIGNED_LABEL": "yes"
  },
  {
    "CPD_SMILES": "CC(C)c1ccc2c(c1O)CC[C@H]1C3=C(CC[C@]21C)C(=O)OC3",
    "ASSIGNED_LABEL": "no"
  },
  {
    "CPD_SMILES": "CC(C)(Oc1ccc(Cl)cc1)C(=O)O",
    "ASSIGNED_LABEL": "no"
  }
]

###

Assay: chemical genetic growth profiling, strain panel (AID 1159580);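 also: tested at 20 µM; growth read once vehicle control cultures reached saturation at 30 °C; 1 = growth at the plate median or of vehicle wells; lower values mean less growth of the strain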
Details: S. cerevisiae deletion strains, growth OD, locus YLR102C, strain apc9, stronger effect = lower value
The whole screen tested about 5,500 compounds, of which about 2,000 (36%) were called active. Another 18% or so got no clear call; they are omitted. This is one part of the list.
PROPERTY: normalized growth

[
  {
    "COMPOUND": "N[C@@H]1CONC1=O",
    "PROPERTY": "normalized growth",
    "EXPERIMENTAL_VALUE": 1.01
  },
  {
    "COMPOUND": "CNCCC=C1c2ccccc2CCc2ccccc21",
    "PROPERTY": "normalized growth",
    "EXPERIMENTAL_VALUE": 1.01
  },
  {
    "COMPOUND": "Cc1cc(=O)c2c(O)c3c(cc2o1)OC(C)(C)CC3",
    "PROPERTY": "normalized growth",
    "EXPERIMENTAL_VALUE": 0.975
  },
  {
    "COMPOUND": "COc1cc2cc[n+]3cc4c(OC)c(OC)ccc4cc3c2cc1OC",
    "PROPERTY": "normalized growth",
    "EXPERIMENTAL_VALUE": 0.959
  },
  {
    "COMPOUND": "COc1cc(O)c2c(=O)c(-c3ccc(O)cc3)coc2c1",
    "PROPERTY": "normalized growth",
    "EXPERIMENTAL_VALUE": 0.946
  },
  {
    "COMPOUND": "COc1cc([C@@H]2c3cc4c(cc3C(O[C@@H]3O[C@@H]5CO[C@@H](c6cccs6)OC5[C@H](O)[C@H]3O)C3COC(=O)[C@@H]32)OCO4)cc(OC)c1O (stereo partly drawn)",
    "PROPERTY": "normalized growth",
    "EXPERIMENTAL_VALUE": 1.02
  },
  {
    "COMPOUND": "C#CCOS(=O)OC1CCCCC1Oc1ccc(C(C)(C)C)cc1 (stereo not drawn)",
    "PROPERTY": "normalized growth",
    "EXPERIMENTAL_VALUE": 0.983
  },
  {
    "COMPOUND": "COc1ccc(-c2cc(=O)c3c(OC(C)=O)cc(OC(C)=O)cc3o2)cc1",
    "PROPERTY": "normalized growth",
    "EXPERIMENTAL_VALUE": 0.959
  },
  {
    "COMPOUND": "Cc1cc(=O)c2c(o1)-c1c(cc(O)c(O)c1C(=O)O)OC2",
    "PROPERTY": "normalized growth",
    "EXPERIMENTAL_VALUE": 1.01
  },
  {
    "COMPOUND": "CC(=O)[C@H]1CCC2C3CC=C4C[C@@H](O)CC[C@]4(C)C3CC[C@@]21C (stereo partly drawn)",
    "PROPERTY": "normalized growth",
    "EXPERIMENTAL_VALUE": 1.03
  },
  {
    "COMPOUND": "COc1ccc2c(=O)cc(-c3ccccc3OC)oc2c1",
    "PROPERTY": "normalized growth",
    "EXPERIMENTAL_VALUE": 0.95
  },
  {
    "COMPOUND": "O=c1c(-c2ccccc2)coc2cc(O)cc(O)c12",
    "PROPERTY": "normalized growth",
    "EXPERIMENTAL_VALUE": 0.953
  },
  {
    "COMPOUND": "COc1ccc(-c2cc(=O)c3c(OC)cccc3o2)cc1",
    "PROPERTY": "normalized growth",
    "EXPERIMENTAL_VALUE": 1.02
  }
]
